Values compiled from PubChem BioAssay (NCI).

Experiment: NCI Yeast Anticancer Drug Screen. Data for the mec2-1 strain (AID 157)
Settings: S. cerevisiae mec2-1 strain, at 50.0 µM
The panel holds about 79,000 compounds, 15% with a hit somewhere; the sample as a whole holds those more often. Calls of active or inactive are those of the source. No stated cut-off is given here; in the data, active means growth inhibition above about 70%; inactive means the rest.
Select the matching outcome among true (1) (active), false (0) (inactive)

Which outcome did this test record for the compound Cc1nc2c(N3CCCCC3)ncnc2o1 ?
false (0)

Given NCCCN(CCO)CCO , state the outcome it received in this test.
false (0)

Fill in: this test's call for CC(=O)c1cc(Cl)ccc1Cl is ___
false (0)

* * *

Experiment: NCI Yeast Anticancer Drug Screen. Data for the bub3 strain (AID 167)
Details: S. cerevisiae bub3 mutant strain, at 50.0 µM, active compounds read high
About 79,000 compounds went through this panel and 15% of them were active in at least one assay; those are over-represented in the sample as a whole.
// reported growth inhibition per item
# unit: % | format: bare number

Study these solved cases before continuing.
INSERT INTO results (compound, experimental_result) VALUES
  ('O=C1CSC(c2cccc(Cl)c2)N1c1ccc(-n2c(-c3ccccc3)nc3ccccc3c2=O)cc1 (stereo not drawn)', 9.2),
  ('C/C(=N\N=C(/C)c1ccc(-c2ccccc2)cc1)c1ccc(-c2ccccc2)cc1', 20.8),
  ('O=[N+]([O-])c1cccc(CC(=S)N2CCOCC2)c1', -2.3),
  ('CN(C)CCCN=C(N)N', -57.5),
  ('OCCCSc1ccccc1SCCCO', 3.75);

Form field: reported growth inhibition of COC(=O)CCBr
-1.9

// query growth inhibition value for entry Cc1c2oc3c(C)ccc(C(=O)NCCN4CCCC4)c3nc-2c(C(=O)NCCN2CCCC2)c(N)c1=O
3.6

Find the recorded growth inhibition belonging to N#C/C(=N\N=C(/C#N)c1ccc(Cl)cc1)c1ccc(Cl)cc1 and report it.
-4.25

Any idea what growth inhibition was measured for O=c1c2ccccc2n2c(-c3ccc(O)cc3)nnc2n1-c1ccccc1 ?
1.5

Quick one: growth inhibition of O=C(OCC(Cl)(Cl)Cl)N1[C@H]2C3=C(CCC3)[C@@H]([C@H]3O[C@H]32)N1C(=O)OCC(Cl)(Cl)Cl ?
10

Given the entry COC(=O)C(C)OP(=O)(OC(C)C(=O)OC)OC(C)C(=O)OC (stereo not drawn) , report its measured growth inhibition.
15.1

Report growth inhibition for Cc1cc2c(c3c1C(=O)CC3)CCCC2(C)C please.
2.15

Which growth inhibition value belongs to CCCCC(=O)Nc1ccc(Cl)cc1 ?
-19.9

Quick one: growth inhibition of O=C(O)CN1C(=O)C2C3c4ccccc4C(c4ccccc43)C2C1=O (stereo not drawn) ?
-19.6

// lookup growth inhibition for CSSC(SC)SC
-11.6

Return reported growth inhibition; argument: O=C(O)C#Cc1cccc(Cl)c1
-16.5

Which growth inhibition is reported for this compound? CC1(C)CCC2(C)CCC3(C)C(=CCC4C5(C)CCC(O)C(C)(C)C5CCC43C)C2C1 (stereo not drawn)
4.25

Report growth inhibition for CSc1nc2c(cnn2C)c(=O)[nH]1 please.
10.5

Using the record for COc1ccc(OC(C)C(=O)O)cc1 (stereo not drawn) , report its growth inhibition.
13.3

Look up growth inhibition: S=c1nc[nH]c2c1cnn2-c1ccccc1
-7.3

// lookup growth inhibition for O=C(Nc1ccccc1[N+](=O)[O-])OCc1ccccc1
1.6

What value of growth inhibition has been reported for the following compound? C=CCN1COc2c(cc3c4c(cccc24)C(=O)O3)C1
6.35

* * *

Assay: NCI Yeast Anticancer Drug Screen. Data for the sgs1 mgt1 strain (AID 161);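 further: 0% = growth of cultures given vehicle only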
Settings: S. cerevisiae sgs1 mgt1 strain, at 50.0 µM, active compounds read high
Compounds without any hit were thinned out: in the full panel of roughly 79,000, 15% have a hit.
observation.type: growth inhibition (%)
Answer in %, number only, no unit symbol.

Consider the reported growth inhibition for these compounds:
INSERT INTO results (compound, observation_type, endpoint_unit, experimental_result) VALUES
  ('O=P(OCCCl)(OCCCl)C(c1ccccc1)(c1ccccc1)c1ccccc1', 'growth inhibition', '%', 72.6),
  ('O=C(NCP(=O)(c1ccccc1)c1ccccc1)OCc1ccccc1', 'growth inhibition', '%', -25.9),
  ('CCCCN1CCNC1=S', 'growth inhibition', '%', 4.25),
  ('COc1cc(COC(=O)Nc2ccccc2F)cc(OC)c1OC', 'growth inhibition', '%', 7.25),
  ('Cn1cc(/C=C\C(=O)O)c2ccccc21', 'growth inhibition', '%', 6.7),
  ('CC(=O)OC1CC2(C)OC(Cc3ccccc32)O1 (stereo unspecified)', 'growth inhibition', '%', -58.6),
  ('CC(C)=CCNc1ncnc2c1ncn2CCC#N', 'growth inhibition', '%', -16.9),
  ('COc1cc(O)c(C(C)c2ccccc2)cc1N=NC(N)=O (stereo unspecified)', 'growth inhibition', '%', 19.3),
  ('CC(O)c1cccc(NC(=O)NC(C)(C)C)c1 (stereo unspecified)', 'growth inhibition', '%', -5),
  ('CN1c2cccc3cccc(c23)NC12CCCCC2', 'growth inhibition', '%', -10.8);

Need growth inhibition, item COc1cc([C@H]2c3[nH]c4ccccc4c3C[C@H]3COC(=O)N32)cc(OC)c1O
25

Any idea what growth inhibition was measured for CC(C)CC(F)(C(N)=O)C(N)=O ?
-3.4

* * *

Assay: NCI Yeast Anticancer Drug Screen. Data for the sgs1 mgt1 strain (AID 161);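 further: 0% = growth of cultures given vehicle only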
Details: S. cerevisiae sgs1 mgt1 strain, at 50.0 µM, active compounds read high
Procedure: Growth inhibition of yeast strains with defined genetic alterations is measured as a screen for potential anti-cancer activity. Selected strains with alterations in DNA damage repair or cell cycle control were exposed to compounds and growth inhibition was measured relative to vehicle treated controls. The strain used in this assay is sgs1 mgt1
About 79,000 compounds went through this panel and 15% of them were active in at least one assay; those are over-represented in the sample as a whole.
observation.type: growth inhibition (%)
The reply should be a number in %, with the unit left off.

INSERT INTO measurements (compound, observation_type, endpoint_unit, experimental_result) VALUES
  ('O=P(c1ccccc1)(c1ccccc1)N1CC1c1ccccc1 (configuration not stated)', 'growth inhibition', '%', 3.2);

Please examine the following record next.
If you can, please state the reported growth inhibition value of Cc1nnc(N=Nc2c(O)[nH]c3ccccc23)[nH]c1=O .
-6.65

* * *

Experiment: NCI Yeast Anticancer Drug Screen. Data for the bub3 strain (AID 167)
Conditions: S. cerevisiae bub3 mutant strain, at 50.0 µM, active compounds read high
Compounds without any hit were thinned out: in the full panel of roughly 79,000, 15% have a hit.
observation.type: growth inhibition (%)
Note: unit % is implicit; provide only the numeric part.

Report growth inhibition for O=C(O)c1cc2c(c(C(=O)O)c1O)CCCC2 please.
-6.35

* * *

Test: NCI Yeast Anticancer Drug Screen. Data for the bub3 strain (AID 167)
Conditions: S. cerevisiae bub3 mutant strain, at 50.0 µM, active compounds read high
The panel holds about 79,000 compounds, 15% with a hit somewhere; the sample as a whole holds those more often.
Label scheme for growth inhibition: lower than -10% is N, -10% and above is Y.

Examples from the recorded data:
INSERT INTO assay_data (compound, group) VALUES
  ('CC(=O)N(C)Nc1ccccc1', 'Y'),
  ('COc1ccc(C)cc1N=NC1C(=O)N(C(=O)CC(=O)Nc2ccccc2OC)N=C1c1ccccc1 (configuration not stated)', 'Y'),
  ('C[N+]1(C)CCCC1', 'Y'),
  ('CCCSc1nc2c(=O)n(C)c(=O)[nH]c2n1C', 'N'),
  ('Cn1nc2c(c1-c1cccnc1)CCCc1ccccc1-2', 'Y');

Hi, just wondering whether CC(NC(=O)OCc1ccccc1)NC(=O)OC(C)(C)C (configuration not stated) shows growth inhibition of -10% or higher.
N

Kindly determine if growth inhibition recorded for N#CC(CC(=O)NN)C(=O)NN (configuration not stated) is above or exactly -10%.
N

Textbook exercise: given the entry COc1ccc(C=C(c2ccc(OCc3ccccc3)cc2)c2ccc(OCc3ccccc3)cc2)cc1 , state whether its growth inhibition is greater than or equal to -10%.
N

* * *

Experiment: NCI Yeast Anticancer Drug Screen. Data for the rad50 strain (AID 155);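 further: 0% = growth of vehicle-only cultures of the same strain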
Conditions: S. cerevisiae rad50 strain growth inhibition; at 50.0 µM; active compounds read high
The panel holds about 79,000 compounds, 15% with a hit somewhere; the sample as a whole holds those more often.
observation.type: growth inhibition (%)
Hi! Could you send only the number? It should be in %, unit omitted.

Past entries and their recorded results:
INSERT INTO results (compound, endpoint_unit, experimental_result) VALUES
  ('COC(=O)C(=O)CC(=O)CCn1ncc(Cl)c(Cl)c1=O', '%', -14.3),
  ('COC(=O)c1c(C)oc(C)c1-c1ccc(OCc2ccccc2)c(OC)c1', '%', 8.7),
  ('Nc1ccc(Br)cc1C(=O)O', '%', 4.2),
  ('Cc1cccc(C(C)C)c1NC(=O)C(=O)CC(=O)c1sc(Nc2ccccc2Cl)nc1C', '%', -40),
  ('N#CC(c1ccccc1)N(CCc1ccccc1)C(=O)c1ccccc1 (configuration not stated)', '%', -3.7);

Dear colleague, I am looking for the recorded growth inhibition of the following compound: CCOC(=O)C(NNc1ccccc1)C(=O)C(F)(F)F (configuration not stated)
10.9

Form field: reported growth inhibition of O=C(N/C(=C\c1ccccc1[N+](=O)[O-])c1nc2ccccc2[nH]1)c1ccccc1
-3.4

Which measured growth inhibition value corresponds to O=C1CCCCc2ccccc21 ?
-39.1

Quick one: growth inhibition for O=S(Cc1cnc2ccccc2c1)c1nc2ccccc2nc1-c1cccs1 (configuration not stated) ?
-10.2

Would you mind telling me what growth inhibition value was observed for O=C1c2c(ccc3c2CCCC3)CC12Cc1ccccc1C2 ?
8.9

May I ask what growth inhibition has been recorded for O=[N+]([O-])c1ccc(C2NC(c3ccccc3)c3c(ccc4ccccc34)O2)cc1 (configuration not stated) ?
41

Need growth inhibition of CCCCC(C(=O)O)C(C)CC (configuration not stated) , thanks.
35
